Each recorded value in this set is attributed to ChEMBL document CHEMBL4513216.

Test system: Plasmodium berghei
measurement protocol: Screen against P. berghei liver stage (PbLuc), transformed with Luciferase, at 10uM
Assay type: functional, HepG2
experimental parameters: tested at 10 uM
The campaign covered roughly 69,000 compounds. About 8,600 (12%) showed an effect of 50% or more. Shown is part of a subset that was picked to be rich in strong results.
Collected INHIBITION values appear next to each entry.
Write the number in % without appending the unit.

Quickly give me recorded INHIBITION for O=C(NCCc1ccncc1)c1cccc(S(=O)(=O)N[C@@H]2CCNC2)c1
-16.1

Next:
Quickly give me recorded INHIBITION for CCN(CC)C(=O)Cn1cc(C(=O)NCCc2nc(C)c(C)s2)nn1
39

Quickly give me recorded INHIBITION for CC(CN(C)C)Nc1nc(O)cc(Cc2ccccc2F)n1 (stereo unspecified)
39.3

Quickly give me recorded INHIBITION for FC1(F)CCNCC12CCN(c1cccnc1)C2 (stereo unspecified)
33

Quickly give me recorded INHIBITION for O=C(NCC1CN(c2ncccn2)Cc2nccn2C1)c1cccnc1 (stereo unspecified)
-86.4

Quickly give me recorded INHIBITION for CN1CCOC(c2cncc(CCC(N)=O)n2)C1 (stereo unspecified)
-0.232

----------
Collected INHIBITION values appear next to each entry.
Test system: Plasmodium berghei
measurement protocol: Screen against P. berghei liver stage (PbLuc), transformed with Luciferase, at 10uM
Type: functional, HepG2
experimental parameters: tested at 10 uM
Screen size: about 69,000 compounds; about 8,600 (12%) showed an effect of 50% or more. Many of the other results were omitted from the sample, so strong results are more common in it than they were.
Don't forget the unit after the number, please.

For orientation, consider the following solved cases.
Quickly give me recorded INHIBITION for O=C1[C@H]2CN(C3CCOCC3)C[C@H]2CN1Cc1ccncc1
-2.46%

Quickly give me recorded INHIBITION for O=c1[nH]ncc(NCCOc2ccc3c(c2)OCO3)c1Cl
20.3%

Quickly give me recorded INHIBITION for Cc1ccc2c(n1)N(Cc1cccnc1)CCN(C1CCOCC1)C2
64.9%

Quickly give me recorded INHIBITION for Cc1nc(NC(=O)N[C@H](CO)c2ccccc2)sc1C
7.3%

Quickly give me recorded INHIBITION for NC(=O)C1CCN(CCc2ccc(NC(=O)C3CC3)cc2)CC1
45.05%

Next:
Quickly give me recorded INHIBITION for COC(=O)C1=C(C)N=C2SCC(=O)N2C1c1cn(C)nc1C (centres undefined)
12.6%

Quickly give me recorded INHIBITION for NC(=O)CSCC(=O)NC1(c2cccc(Cl)c2)CC1
38.6%

Quickly give me recorded INHIBITION for CO[C@H]1CCN(Cc2nccs2)C[C@@H]1Cc1ccccc1
69.5%

----------
System: Plasmodium berghei
measurement protocol: Screen against P. berghei liver stage (PbLuc), transformed with Luciferase, at 10uM
Format: functional, HepG2
experimental parameters: tested at 10 uM
Out of some 69,000 compounds screened, about 8,600 (12%) showed an effect of 50% or more. Many of the other results were omitted from the sample, so strong results are more common in it than they were.
Classification field: true = INHIBITION at or over 30%; false = INHIBITION under 30%.

INHIBITION >= 30% for O=C(NCc1ccco1)N1CCC(n2ccc(C(F)(F)F)n2)CC1 ?
true

INHIBITION >= 30% for CCC(=O)NCC(c1ccc(SC)cc1)N1CCc2sccc2C1 (configuration not stated) ?
false

INHIBITION >= 30% for CCSCC(C)NCc1cc(-c2ccco2)on1 (configuration not stated) ?
false

INHIBITION >= 30% for COc1ccc(Oc2cccc(C#N)n2)cc1CN1CCCC1 ?
false

INHIBITION >= 30% for Cc1nn(CCO)cc1CN1CCCC1c1nc2c(C)cccc2[nH]1 (configuration not stated) ?
true

Please turn your attention to the following entry.
INHIBITION >= 30% for CCS(=O)(=O)N1C[C@@H](C(=O)NC(C)C)[C@@]2(Cc3ccccc3C(=O)N2)C1 ?
false

----------
System: Plasmodium berghei
measurement protocol: Screen against P. berghei liver stage (PbLuc), transformed with Luciferase, at 10uM
Type: functional, HepG2
experimental parameters: tested at 10 uM
Screen size: about 69,000 compounds; about 8,600 (12%) showed an effect of 50% or more. Many of the other results were omitted from the sample, so strong results are more common in it than they were.
Classification field: y = INHIBITION at or over 10%; n = INHIBITION under 10%.

INHIBITION >= 10% for CN1CCOC(CNCc2c(Cl)nc3ccccn23)C1 (stereo not drawn) ?
n

INHIBITION >= 10% for CCOCCNC(=O)c1cnc(Sc2nccn2C)c(Cl)c1 ?
y

INHIBITION >= 10% for CCCOC(C)Cn1ccc2[nH]c(=O)c(C#N)cc2c1=O (stereo not drawn) ?
y

INHIBITION >= 10% for COc1cc(C(=O)Nc2c(C)noc2C)ccc1C ?
y

INHIBITION >= 10% for CC1(C)CNC(=O)c2nc(CCCN3CCCC3)[nH]c2C1 ?
y

INHIBITION >= 10% for COc1cc2c(nn1)CCN(Cc1nc(Cc3ccccc3)no1)C2 ?
n

INHIBITION >= 10% for O=C(C1CCOCC1)N1CCO[C@H]2[C@H](OCC3CC3)CC[C@@H]21 ?
n

INHIBITION >= 10% for CCOCCCNC(=O)c1nn(CC)cc1Cl ?
n

Next:
INHIBITION >= 10% for CCOC(=O)C1CC2(CCCC2)N2CCC(=O)N12 (stereo not drawn) ?
n

INHIBITION >= 10% for CCNC(=O)c1cnc(Sc2nccn2C)c(Cl)c1 ?
y

INHIBITION >= 10% for O=C(NCC1CC1)N1CCN(Cc2ccc3c(c2)OCCO3)CC1 ?
y

INHIBITION >= 10% for COc1cc(C(=O)Nc2cn[nH]c2)ccc1C ?
y

INHIBITION >= 10% for Cn1c(=O)c2cc(C(=O)NCCc3ccccc3)ccc2n(C)c1=O ?
n

INHIBITION >= 10% for Cc1ccc(-c2cc(C(=O)NC(C)C(=O)N3CCCCC3)on2)cc1 (stereo not drawn) ?
n

INHIBITION >= 10% for O=C(c1ccoc1)N1CCC2(CC1)COC(COCc1ccccn1)C2 (stereo not drawn) ?
y

----------
Tested on: Plasmodium berghei
measurement protocol: Screen against P. berghei liver stage (PbLuc), transformed with Luciferase, at 10uM
Assay type: functional, HepG2
experimental parameters: tested at 10 uM
Out of some 69,000 compounds screened, about 8,600 (12%) showed an effect of 50% or more. This excerpt belongs to a sample that is enriched for strong results.
Collected INHIBITION values appear next to each entry.
Write the number in % without appending the unit.

Report the value of INHIBITION obtained on Plasmodium berghei for Cc1ccoc1C(=O)NC1CCN(Cc2ccccc2C#N)CC1 .
-9.37

Report the value of INHIBITION obtained on Plasmodium berghei for CC(C)n1ccnc1CN1C(=O)OC[C@@H]1c1ccccc1 .
42.6

Report the value of INHIBITION obtained on Plasmodium berghei for CCCNC(=O)CCOc1cccc(F)c1 .
14.465

Report the value of INHIBITION obtained on Plasmodium berghei for Cc1ccoc1C(=O)NC1CCN(C(=O)Nc2ccccn2)CC1 .
-31.8

Report the value of INHIBITION obtained on Plasmodium berghei for O=C(N1CCCC1)N1Cc2nccn2CC(CN2CCCC2)C1 (stereo unspecified) .
42.6

Report the value of INHIBITION obtained on Plasmodium berghei for CC1CCc2n[nH]c(C(=O)N3CCc4c(nc(N(C)C)[nH]c4=O)C3)c2C1 (stereo unspecified) .
16.3

Report the value of INHIBITION obtained on Plasmodium berghei for O=C(NCC1CCCO1)c1csc(Cc2ccccc2)n1 (stereo unspecified) .
-87.7

Report the value of INHIBITION obtained on Plasmodium berghei for Cc1ncsc1CCN(C)C(=O)CN1CCOc2ccccc2C1 .
40.5

Next:
Report the value of INHIBITION obtained on Plasmodium berghei for O=C(CC1CC1)N1Cc2nccn2CC(Cn2ncccc2=O)C1 (stereo unspecified) .
-13.2

Report the value of INHIBITION obtained on Plasmodium berghei for CC(=O)NCC(=O)N1Cc2nccn2CC(CN2CCCC2)C1 (stereo unspecified) .
28.4

----------
Tested on: Plasmodium berghei
measurement protocol: Screen against P. berghei liver stage (PbLuc), transformed with Luciferase, at 10uM
Assay type: functional, HepG2
experimental parameters: tested at 10 uM
In all, about 69,000 compounds went through this assay and about 8,600 (12%) showed an effect of 50% or more. The full list was thinned out, with strong results kept by preference.
Classification field: fulfilled = INHIBITION at or over 30%; not fulfilled = INHIBITION under 30%.

INHIBITION >= 30% for CC(c1c(F)cccc1F)N1CCN(Cc2nccn2C)CC1 (stereo not drawn) ?
not fulfilled

Next:
INHIBITION >= 30% for CCc1noc(C(C)N(C)CC(=O)Nc2ccc(Br)cc2C)n1 (stereo not drawn) ?
fulfilled

INHIBITION >= 30% for Cc1ccc(-n2nnc(C(=O)NCCS(N)(=O)=O)c2C2CC2)cc1 ?
fulfilled

INHIBITION >= 30% for CN(Cc1cnn(C)c1)C(=O)c1ccc(=O)n(Cc2ccccc2)n1 ?
not fulfilled

INHIBITION >= 30% for CCN(CC)C(=O)Cn1ccc2cc(NC(C)=O)ccc21 ?
not fulfilled

INHIBITION >= 30% for Cc1cc2nc(C(C)C)cc(NCCc3cccn3C)n2n1 ?
fulfilled

INHIBITION >= 30% for CCN(Cc1ccncc1)Cc1cn(-c2ccccc2)nn1 ?
not fulfilled

INHIBITION >= 30% for CC(C)NC(=O)c1nnn(-c2ccccc2)c1C1CC1 ?
not fulfilled

INHIBITION >= 30% for N#Cc1ccc(CN(CC(N)=O)C2CCCC2)cc1 ?
fulfilled

INHIBITION >= 30% for COc1cccc(-c2n[nH]cc2CNC2CCN(C3CC3)CC2)c1 ?
not fulfilled

INHIBITION >= 30% for Cc1nc(C)n(CC2CCCN(CC(=O)Nc3nnc(C)s3)C2)n1 (stereo not drawn) ?
fulfilled

INHIBITION >= 30% for COc1ccc(Br)cc1CN(C)C(C)c1nc(C(C)C)no1 (stereo not drawn) ?
not fulfilled

INHIBITION >= 30% for NC(=O)CN(Cc1ncc(-c2ccccc2)o1)C1CCCC1 ?
not fulfilled

INHIBITION >= 30% for Cc1cc(C)cc(CN2CCN(Cc3cccc(CCN)c3)CC2=O)c1 ?
fulfilled

INHIBITION >= 30% for O=C(NCC1(CO)CC1)c1nnn(-c2ccc(F)cc2)c1C1CC1 ?
fulfilled
